- System name: SphK1 (Homo sapiens)
- Sequence (Q9NYA1 whole entry): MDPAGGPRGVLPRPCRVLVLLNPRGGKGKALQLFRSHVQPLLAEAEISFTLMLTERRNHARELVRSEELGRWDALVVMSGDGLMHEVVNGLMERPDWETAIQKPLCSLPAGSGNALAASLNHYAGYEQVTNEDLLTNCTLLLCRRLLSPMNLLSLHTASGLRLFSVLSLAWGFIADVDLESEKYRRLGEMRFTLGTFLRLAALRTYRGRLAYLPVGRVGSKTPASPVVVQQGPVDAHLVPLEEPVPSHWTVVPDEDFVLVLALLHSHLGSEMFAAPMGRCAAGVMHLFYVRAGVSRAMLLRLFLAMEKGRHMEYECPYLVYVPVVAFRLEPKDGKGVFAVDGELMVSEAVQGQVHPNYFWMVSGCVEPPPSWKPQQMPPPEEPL
As shown below, each of these molecules has a reported IC50 value.
All answers are understood in µM, so give the number only.

Oc1ccc(Nc2nccc(-c3ccc(Cl)cc3)n2)cc1 ... 43.9
COc1ccc2[nH]c(=O)c(/C=C/C(=O)c3ccc(Nc4nccc(-c5ccc(Cl)cc5)n4)cc3)cc2c1 [11a] ... 28.2
O=c1[nH]c2cc(O)c(O)cc2cc1CNc1ccc(Nc2nccc(-c3ccc4ccccc4c3)n2)cc1 [19b] ... 15.7
COc1cc2cc(CNc3ccc(Nc4nccc(-c5ccc(Cl)cc5)n4)cc3)c(=O)[nH]c2cc1OC [16a] ... 59.1

Switching to the query record.
Problem: Tell me reported IC50 for COc1cc2cc(CNc3ccc(Nc4nccc(-c5ccc6ccccc6c5)n4)cc3)c(=O)[nH]c2cc1OC [16b] , tested with SphK1 (Homo sapiens).
Solution: 18.7
